B1: KRT18 (parent)
chain: PQVRDWSHYFKIIEDLRAQIFANT

- Variants of: B1
- Assay Overview: protein stability index of a GFP-peptide fusion (GPS, HEK-293T) (PSI 1-6); higher = more stable;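 also: lentivirally expressed fusions sorted by FACS into six bins by GFP to DsRed ratio, PSI derived from sequencing read proportions per bin multiplied by bin number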
- Test Settings: c terminus: a fixed tail appended
Measured Metric: protein stability index

[[record]]
residue_sequence = "PQVRDISHYFKIIEDLRAQIFANT [W6I]"
numeric_readout = 2.48

[[record]]
residue_sequence = "PQVRDWSHYFKIIEDLRAQIFVNT [A22V]"
numeric_readout = 2.01

[[record]]
residue_sequence = "PQVRDWSHYFKIISDLRAQIFANT [E14S]"
numeric_readout = 2.26

[[record]]
residue_sequence = "PQVRDWSHYFTIIEDLRAQIFANT [K11T]"
numeric_readout = 1.98

[[record]]
residue_sequence = "PQVRDWSHYFKFIEDLRAQIFANT [I12F]"
numeric_readout = 1.9

[[record]]
residue_sequence = "PQVRDWSHYFKGIEDLRAQIFANT [I12G]"
numeric_readout = 2.72

[[record]]
residue_sequence = "PQVRDWSHYFKIIEDLQAQIFANT [R17Q]"
numeric_readout = 2.19

[[record]]
residue_sequence = "PCVRDWSHYFKIIEDLRAQIFANT [Q2C]"
numeric_readout = 2.67

[[record]]
residue_sequence = "PQVDDWSHYFKIIEDLRAQIFANT [R4D]"
numeric_readout = 2.84

[[record]]
residue_sequence = "PQVRDWSHYFKIIEDLRAQIIANT [F21I]"
numeric_readout = 1.91

[[record]]
residue_sequence = "DQVRDWSHYFKIIEDLRAQIFANT [P1D]"
numeric_readout = 2.83

[[record]]
residue_sequence = "PQVRDWSHYFKIIEALRAQIFANT [D15A]"
numeric_readout = 2.47

[[record]]
residue_sequence = "CQVRDWSHYFKIIEDLRAQIFANT [P1C]"
numeric_readout = 2.3

[[record]]
residue_sequence = "PQVRDWSHYFKIIKDLRAQIFANT [E14K]"
numeric_readout = 2.77

[[record]]
residue_sequence = "NQVRDWSHYFKIIEDLRAQIFANT [P1N]"
numeric_readout = 2.5

[[record]]
residue_sequence = "PQVRDWSHYFKIIEDLRAQIFANP [T24P]"
numeric_readout = 2.84

[[record]]
residue_sequence = "PQVRDWSHYFKIIEDLRAQIGANT [F21G]"
numeric_readout = 2.52

[[record]]
residue_sequence = "PQVRDWSHYFKIIEDLRAQIRANT [F21R]"
numeric_readout = 2.33

[[record]]
residue_sequence = "PQVRDWSHYFKIIEDLRAQWFANT [I20W]"
numeric_readout = 1.62

[[record]]
residue_sequence = "PQVRDWSQYFKIIEDLRAQIFANT [H8Q]"
numeric_readout = 1.83

[[record]]
residue_sequence = "PQVRDWSHYFKIIEDLRAQIVANT [F21V]"
numeric_readout = 2.39

[[record]]
residue_sequence = "RQVRDWSHYFKIIEDLRAQIFANT [P1R]"
numeric_readout = 2.86

